Data credit: the NIST ThermoML archive (doi:10.1021/je800105r)

test: activity coefficient (dimensionless); of the first substance listed, at infinite dilution; xn = mol fraction of the nth substance listed; conditions: 308.15 K; Liquid; Chromatography; x1 = 0
Measurement Kind: activity coefficient
Form: value (number only, do not type unit).

stdin: Consider the compound shown here: c1ccccc1 [benzene] + CCCCCCCCCCCCCC[P+](CCCCCC)(CCCCCC)CCCCCC.O=S(=O)([N-]S(=O)(=O)C(F)(F)F)C(F)(F)F What is its recorded activity coefficient?
stdout: 0.39

====

experiment: activity coefficient (dimensionless); of the first substance listed, at infinite dilution; xn = mol fraction of the nth substance listed; details: 303.15 K; Liquid; Chromatography; x1 = 0
Documented activity coefficient across a set of compounds
Form: value (number only, do not type unit).

As a guide, the following entries are already answered.
Compound	Result Number
C=CCCCCCC [oct-1-ene] + CCCCCCCCCCCCCC[P+](CCCCCC)(CCCCCC)CCCCCC.O=S(=O)([N-]S(=O)(=O)C(F)(F)F)C(F)(F)F	1.11
C#CCCCCC [1-heptyne] + CCCCCCCCCCCCCC[P+](CCCCCC)(CCCCCC)CCCCCC.O=S(=O)([N-]S(=O)(=O)C(F)(F)F)C(F)(F)F	0.59
CCCCC [pentane] + CCCCCCCCCCCCCC[P+](CCCCCC)(CCCCCC)CCCCCC.O=S(=O)([N-]S(=O)(=O)C(F)(F)F)C(F)(F)F	0.94
CCCCCCCC [octane] + CCCCCCCCCCCCCC[P+](CCCCCC)(CCCCCC)CCCCCC.O=S(=O)([N-]S(=O)(=O)C(F)(F)F)C(F)(F)F	1.32
C1CCCC1 [cyclopentane] + CCCCCCCCCCCCCC[P+](CCCCCC)(CCCCCC)CCCCCC.O=S(=O)([N-]S(=O)(=O)C(F)(F)F)C(F)(F)F	0.68

stdin: Consider the compound shown here: CCCCCC [hexane] + CCCCCCCCCCCCCC[P+](CCCCCC)(CCCCCC)CCCCCC.O=S(=O)([N-]S(=O)(=O)C(F)(F)F)C(F)(F)F What is its recorded activity coefficient?
stdout: 1.09

====

assay: activity coefficient (dimensionless); of the first substance listed, at infinite dilution; xn = mol fraction of the nth substance listed; conditions: 313.15 K; Liquid; Chromatography; x1 = 0
Measurement Kind: activity coefficient
Form: value (number only, do not type unit).

Molecule	activity coefficient
CCCO [propan-1-ol] + CCCCCCCCCCCCCC[P+](CCCCCC)(CCCCCC)CCCCCC.O=S(=O)([N-]S(=O)(=O)C(F)(F)F)C(F)(F)F	1.39
CCO [ethanol] + CCCCCCCCCCCCCC[P+](CCCCCC)(CCCCCC)CCCCCC.O=S(=O)([N-]S(=O)(=O)C(F)(F)F)C(F)(F)F	1.31
c1ccccc1 [benzene] + CCCCCCCCCCCCCC[P+](CCCCCC)(CCCCCC)CCCCCC.O=S(=O)([N-]S(=O)(=O)C(F)(F)F)C(F)(F)F	0.4
C=CCCCCC [1-heptene] + CCCCCCCCCCCCCC[P+](CCCCCC)(CCCCCC)CCCCCC.O=S(=O)([N-]S(=O)(=O)C(F)(F)F)C(F)(F)F	1.04
C=CCCCCCC [oct-1-ene] + CCCCCCCCCCCCCC[P+](CCCCCC)(CCCCCC)CCCCCC.O=S(=O)([N-]S(=O)(=O)C(F)(F)F)C(F)(F)F	1.16
C1CCCCCC1 [cycloheptane] + CCCCCCCCCCCCCC[P+](CCCCCC)(CCCCCC)CCCCCC.O=S(=O)([N-]S(=O)(=O)C(F)(F)F)C(F)(F)F	0.92
CCCCCCC [heptane] + CCCCCCCCCCCCCC[P+](CCCCCC)(CCCCCC)CCCCCC.O=S(=O)([N-]S(=O)(=O)C(F)(F)F)C(F)(F)F	1.3
CCCCC [pentane] + CCCCCCCCCCCCCC[P+](CCCCCC)(CCCCCC)CCCCCC.O=S(=O)([N-]S(=O)(=O)C(F)(F)F)C(F)(F)F	0.99
CCCCCCCC [octane] + CCCCCCCCCCCCCC[P+](CCCCCC)(CCCCCC)CCCCCC.O=S(=O)([N-]S(=O)(=O)C(F)(F)F)C(F)(F)F	1.4
C#CCCCC [1-hexyne] + CCCCCCCCCCCCCC[P+](CCCCCC)(CCCCCC)CCCCCC.O=S(=O)([N-]S(=O)(=O)C(F)(F)F)C(F)(F)F	0.71

stdin: Consider the molecule shown here: C#CCCCCC [1-heptyne] + CCCCCCCCCCCCCC[P+](CCCCCC)(CCCCCC)CCCCCC.O=S(=O)([N-]S(=O)(=O)C(F)(F)F)C(F)(F)F What is its recorded activity coefficient?
stdout: 0.66

stdin: // query: C#CCCCCCC [1-octyne] + CCCCCCCCCCCCCC[P+](CCCCCC)(CCCCCC)CCCCCC.O=S(=O)([N-]S(=O)(=O)C(F)(F)F)C(F)(F)F
stdout: 0.58

stdin: // query: CCCCCC [hexane] + CCCCCCCCCCCCCC[P+](CCCCCC)(CCCCCC)CCCCCC.O=S(=O)([N-]S(=O)(=O)C(F)(F)F)C(F)(F)F
stdout: 1.13

stdin: // query: C1CCCC1 [cyclopentane] + CCCCCCCCCCCCCC[P+](CCCCCC)(CCCCCC)CCCCCC.O=S(=O)([N-]S(=O)(=O)C(F)(F)F)C(F)(F)F
stdout: 0.71

stdin: // query: C1CCCCC1 [cyclohexane] + CCCCCCCCCCCCCC[P+](CCCCCC)(CCCCCC)CCCCCC.O=S(=O)([N-]S(=O)(=O)C(F)(F)F)C(F)(F)F
stdout: 0.82
